Target: 4E10 WT Fab
Experiment: SPR
Where no end group is shown, it is not given here.
Reported property: Kd (nM)
API: value field is a number in nM; no unit string.

The reported value for NWFDITNWLWYIRRRR-NH2 [4E10ep variant (…-RRR)] in terms of Kd is 21
